test system: MRSA; experiment: Potentiating effect of galloyl quinic acid derivatives for the antibacterial activity of oxacillin (agar plate dilution method, MIC); format: cell-based, Staphylococcus aureus; conditions: MRSA 6; with 25 μg/ml of compound
Recorded Oxacillin MIC by entry
property: Oxacillin MIC (µg/mL)

compound="COC(=O)C1(O)CC(OC(=O)c2cc(O)c(O)c(O)c2)C(OC(=O)c2cc(O)c(O)c(O)c2)C(OC(=O)c2cc(O)c(O)c(O)c2)C1 (stereo not shown)" experimental_target=MRSA measure_unit=µg/mL observed_measurement=32
compound="COC(=O)C1(O)CC(O)C(OC(=O)c2cc(O)c(O)c(O)c2)C(OC(=O)c2cc(O)c(O)c(O)c2)C1 (stereo not shown)" experimental_target=MRSA measure_unit=µg/mL observed_measurement=2
compound="O=C(OC1CC(O)(C(=O)O)CC(O)C1OC(=O)c1cc(O)c(O)c(O)c1)c1cc(O)c(O)c(O)c1 (stereo not shown)" experimental_target=MRSA measure_unit=µg/mL observed_measurement=256
compound="O=C(OC1CC(O)(C(=O)O)CC(OC(=O)c2cc(O)c(O)c(O)c2)C1OC(=O)c1cc(O)c(O)c(O)c1)c1cc(O)c(O)c(O)c1 (stereo not shown)" experimental_target=MRSA measure_unit=µg/mL observed_measurement=2

----------
test system: MRSA and MSSA; experiment: Antibacterial activity of gallic acid, various gallates and multivalent phenol derivatives alone (agar plate dilution method, MIC); type: cell-based, Staphylococcus aureus; details: Staphylococcus aureus, MRSA #6; compound alone; read-out: MIC
// MIC lookup, one value per entry
property: MIC (µg/mL)

molecule="CC(=O)c1ccc(O)c(O)c1O [2′,3′,4′-trihydroxyacetophenone]" property=MIC observed_measurement=31.3
molecule="CCCCCCCCCCCCCCCCOC(=O)c1cc(O)c(O)c(O)c1 [Cetyl gallate]" property=MIC observed_measurement=125
molecule="CCCCCCCCCCCOC(=O)c1cc(O)c(O)c(O)c1 [Undecyl gallate, n-undecyl gallate]" property=MIC observed_measurement=31.3
molecule="CCCCCOC(=O)c1ccc(O)cc1 [n-Amyl 4-hydroxybenzoate]" property=MIC observed_measurement=31.3
molecule="CCCCCCCCCCCCOC(=O)c1cc(O)c(O)c(O)c1 [Lauryl gallate, n-lauryl gallate]" property=MIC observed_measurement=31.3
molecule="CC(C)COC(=O)c1cc(O)c(O)c(O)c1 [isoButyl gallate, isobutyl gallate]" property=MIC observed_measurement=62.5
molecule="CCCC(=O)c1cc(O)c(O)cc1O [2′,4′,5′-trihydroxybutyrophenone]" property=MIC observed_measurement=62.5
molecule="CC(C)CCOC(=O)c1ccc(O)cc1 [Isoamyl 4-hydroxybenzoate]" property=MIC observed_measurement=62.5
molecule="CC(C)CCOC(=O)c1cc(O)c(O)c(O)c1 [isoAmyl gallate, Isoamyl gallate]" property=MIC observed_measurement=62.5

----------
# MIC per record follows
test system: MRSA and MSSA; experiment: Antibacterial activity of gallic acid, various gallates and multivalent phenol derivatives alone (agar plate dilution method, MIC); assay type: cell-based, Staphylococcus aureus; settings: Staphylococcus aureus, MSSA #1010; read-out: MIC alone
property: MIC (µg/mL)

molecule="CCCCCCCCCOC(=O)c1cc(O)c(O)c(O)c1 [Nonyl gallate, n-nonyl gallate]" experimental_target="MRSA and MSSA" property=MIC observed_measurement=15.7
molecule="CCCCCCCCCCOC(=O)c1cc(O)c(O)c(O)c1 [Decyl gallate, n-decyl gallate]" experimental_target="MRSA and MSSA" property=MIC observed_measurement=15.7
molecule="CCCCCOC(=O)c1cc(O)c(O)c(O)c1 [Pentyl gallate, n-pentyl gallate]" experimental_target="MRSA and MSSA" property=MIC observed_measurement=62.5
molecule="CCCCCCCCOC(=O)c1cc(O)c(O)c(O)c1 [Octyl gallate, n-octyl gallate]" experimental_target="MRSA and MSSA" property=MIC observed_measurement=31.3
molecule="CCCCCCOC(=O)c1cc(O)c(O)c(O)c1 [Hexyl gallate, n-hexyl gallate]" experimental_target="MRSA and MSSA" property=MIC observed_measurement=62.5
molecule="CCCCOC(=O)c1cc(O)c(O)c(O)c1 [Butyl gallate, n-butyl gallate]" experimental_target="MRSA and MSSA" property=MIC observed_measurement=125
molecule="CCCCCCCOC(=O)c1cc(O)c(O)c(O)c1 [Heptyl gallate, n-heptyl gallate]" experimental_target="MRSA and MSSA" property=MIC observed_measurement=31.3
molecule="CCCOC(=O)c1cc(O)c(O)c(O)c1 [Propyl gallate, n-propyl gallate]" experimental_target="MRSA and MSSA" property=MIC observed_measurement=125

----------
system: MRSA; assay: Potentiating effect of galloyl quinic acid derivatives for the antibacterial activity of oxacillin (agar plate dilution method, MIC); format: cell-based, Staphylococcus aureus; conditions: MRSA COL; with 50 μg/ml of compound
The entries below come with measured Oxacillin MIC values attached.
property: Oxacillin MIC (µg/mL)

compound="COC(=O)C1(O)CC(O)C(OC(=O)c2cc(O)c(O)c(O)c2)C(OC(=O)c2cc(O)c(O)c(O)c2)C1 (stereo not shown)" property="Oxacillin MIC" comparative_sign== observed_measurement=2
compound="O=C(OC1CC(O)(C(=O)O)CC(OC(=O)c2cc(O)c(O)c(O)c2)C1OC(=O)c1cc(O)c(O)c(O)c1)c1cc(O)c(O)c(O)c1 (stereo not shown)" property="Oxacillin MIC" comparative_sign== observed_measurement=4
compound="O=C(OC1CC(O)(C(=O)O)CC(O)C1OC(=O)c1cc(O)c(O)c(O)c1)c1cc(O)c(O)c(O)c1 (stereo not shown)" property="Oxacillin MIC" comparative_sign=> observed_measurement=256
compound="COC(=O)C1(O)CC(OC(=O)c2cc(O)c(O)c(O)c2)C(OC(=O)c2cc(O)c(O)c(O)c2)C(OC(=O)c2cc(O)c(O)c(O)c2)C1 (stereo not shown)" property="Oxacillin MIC" comparative_sign== observed_measurement=128

----------
System: MRSA
Test: Potentiating effect of galloyl quinic acid derivatives for the antibacterial activity of oxacillin (agar plate dilution method, MIC)
Type: cell-based, Staphylococcus aureus
Settings: MRSA 7; with 25 μg/ml of compound
Protocol: According to the agar plate dilution method defined by Japan Society of Chemotherapy, MIC (Minimum inhibitory concentration) was determined. […] It was confirmed that the known substances shown below were contained in “Tara” and their MICs were determined as described in example 2 with respect to the effects of the combination use with oxacillin
# Oxacillin MIC values compiled below
property: Oxacillin MIC

compound="COC(=O)C1(O)CC(O)C(OC(=O)c2cc(O)c(O)c(O)c2)C(OC(=O)c2cc(O)c(O)c(O)c2)C1 (stereo not shown)" observed_measurement="16 µg/mL"
compound="O=C(OC1CC(O)(C(=O)O)CC(O)C1OC(=O)c1cc(O)c(O)c(O)c1)c1cc(O)c(O)c(O)c1 (stereo not shown)" observed_measurement=">256 µg/mL"
compound="COC(=O)C1(O)CC(OC(=O)c2cc(O)c(O)c(O)c2)C(OC(=O)c2cc(O)c(O)c(O)c2)C(OC(=O)c2cc(O)c(O)c(O)c2)C1 (stereo not shown)" observed_measurement="128 µg/mL"
compound="O=C(OC1CC(O)(C(=O)O)CC(OC(=O)c2cc(O)c(O)c(O)c2)C1OC(=O)c1cc(O)c(O)c(O)c1)c1cc(O)c(O)c(O)c1 (stereo not shown)" observed_measurement="4 µg/mL"

----------
Recorded Oxacillin MIC for the following compounds
tested on: MRSA; assay: Potentiating effect of galloyl quinic acid derivatives for the antibacterial activity of oxacillin (agar plate dilution method, MIC); format: cell-based, Staphylococcus aureus; details: MSSA 1032; with 25 μg/ml of compound
property: Oxacillin MIC

compound="O=C(OC1CC(O)(C(=O)O)CC(OC(=O)c2cc(O)c(O)c(O)c2)C1OC(=O)c1cc(O)c(O)c(O)c1)c1cc(O)c(O)c(O)c1 (stereo not shown) [compound 3]" observed_measurement="<0.5 µg/mL"
compound="O=C(OC1CC(O)(C(=O)O)CC(O)C1OC(=O)c1cc(O)c(O)c(O)c1)c1cc(O)c(O)c(O)c1 (stereo not shown) [compound 4]" observed_measurement="<0.5 µg/mL"
compound="COC(=O)C1(O)CC(O)C(OC(=O)c2cc(O)c(O)c(O)c2)C(OC(=O)c2cc(O)c(O)c(O)c2)C1 (stereo not shown) [compound 1]" observed_measurement="0.25 µg/mL"
compound="COC(=O)C1(O)CC(OC(=O)c2cc(O)c(O)c(O)c2)C(OC(=O)c2cc(O)c(O)c(O)c2)C(OC(=O)c2cc(O)c(O)c(O)c2)C1 (stereo not shown) [compound 2]" observed_measurement="<0.5 µg/mL"

----------
Listing: MIC of selected molecules
system: MRSA and MSSA; assay: Antibacterial activity of gallic acid, various gallates and multivalent phenol derivatives alone (agar plate dilution method, MIC); format: cell-based, Staphylococcus aureus; details: Staphylococcus aureus, MRSA #7; read-out: MIC alone
property: MIC (µg/mL)

molecule="CCCCOC(=O)c1cc(O)c(O)c(O)c1 [Butyl gallate, n-butyl gallate]" property=MIC observed_measurement=125
molecule="CCCOC(=O)c1cc(O)c(O)c(O)c1 [Propyl gallate, n-propyl gallate]" property=MIC observed_measurement=125
molecule="COC(=O)c1cc(O)c(O)c(O)c1 [Methyl gallate, methyl gallate]" property=MIC observed_measurement=250
molecule="CCCCCCOC(=O)c1cc(O)c(O)c(O)c1 [Hexyl gallate, n-hexyl gallate]" property=MIC observed_measurement=31.3
molecule="CCCCCCCCCOC(=O)c1cc(O)c(O)c(O)c1 [Nonyl gallate, n-nonyl gallate]" property=MIC observed_measurement=15.7
